study-target: Human HER3, endogenous, on human cancer cell lines (human, UniProt P21860 20-1342); also: test concentration or dose not given here
test-name: cell-based or functional assay
reported-metric: SK-Br-3 pAkt (S473) % inhibition
Just the number plus its unit, please.

Ask: I am curious: what SK-Br-3 pAkt (S473) % inhibition value has been reported for MOR09824 (antibody, human IgG1, kappa, V domains shown, tested as IgG) VH: QVQLVESGGGLVQPGGSLRLSCAASGFTFSSYAMSWVRQAPGKGLEWVSVISAWGHVKYYADSVKGRFTISRDNSKNTLYLQMNSLRAEDTAVYYCARWGDEGFDIWGQGTLVTVSS VL: DIQMTQSPSSLSASVGDRVTITCRASQGISNWLAWYQQKPGKAPKLLIYGASSLQSGVPSRFSGSGSGTDFTLTISSLQPEDFAVYYCQQYSSFPTTFGQGTKVEIKR ?
Reply: 93%
